Taken from the DeepSol protein solubility set.

# assayProtocol: soluble on expression in E. coli; label from the status in PepcDB or PDB records

sequence	soluble on expression in E. coli
IGKVKYNLGFNLYDAKTKITKYNNETGLFGKDKNDKDTYRVGMELGEIWGYVTDRLYTVDDFDADGKLKAGIPKVEGYNPNPGDILYKDLDDNDIINGGTSTTKDPGDRKIIGNSTRRYQYGIHGGANWKGVSLSFLLQGVGKRDLWIMNDLFYPHYDAWTTVYDTQLNYWTPERTDSYFPRLYEKAAGNTAANTRIQTRYLQDGSYLSIRNITLSYNFPSKWMTKIGVNNLAVFFSGENLYTFDHLPKGLDPERSVTDDLGQRGFTYPYMRQYSFGINLSF	not soluble
MGSDKIHHHHHHMASFIASDQDVKNFLTAPSMNDQEGIGFAYATDEAVLKALIPAPLKLMAPVVCGYVVHMGKPTFSAPYLEESLFALVSYKDKMMGAYPINLLLHGPGAESGVIAGREGAGIPKKLADDIELRRNDNSATATVERHGKTLLNVSWTAGELNDPSIMKQFAGQLALGKEAEMNSFFYKYDIDQHEDGTNHFSNVQLVATQLRSLADQVEPGNLSIQLESTDDDPFGELKVLKPLGAAWFHFDTSVMFNTLKLDEVDAATTMPKLLTGRYDRSFFNPKAATYII	not soluble

###

# assayProtocol: soluble on expression in E. coli; label from the status in PepcDB or PDB records
measurementName: soluble on expression in E. coli

Record excerpt, results attached:
sequence	soluble on expression in E. coli
MFKKALFILSLCPSFALAQSYVVYDFTHNRVLESHASDSIQPIASVTKLMTANVFLENNKNPNCRIAITKEDTDRIKGTGTKLPKNIPISCNELLKAMLVHSDNYAAHALSRAAGISRRQFIKKMNEKAHQLGMYSTRFHDSSGLSSYNISSPMDLVKLAKYSLNKSDIKRLSNLSATYIQAGKQKLYIKNTNKLVRDEIFDAAVNKTGYIQESGYNLVFINKHRCKNATIGVISLNNTSSAYRSSFTKSKLEKFGCTALNGRTIRDVAGEAQYEDGYDEVGFNTLIQKLSK	not soluble
MRLCGLLIFLSYIVYVDNAVTANFISDPRSMFPKMVRTKNAFHFLQYFMGTFRRMFRNKTEMIEHFNYYDDQVKGTDCHIQEELDFARFKSYFDRYTRTHYNPEIRIIFAIMTKDSSHMTVEFHVTSQSWFGFEDHFHMIIRAVNDENVGWGVRYLSMAFNC	not soluble
SESWRSFFKEALQGVGDMGRAYWDIMISNHQNSNRYLYARGNYDAAQRGPGGVWAAKLISRSRVYLQGLIDYYLFGNSSTVLEDSKSNEKAEEWGRSGKDPDRFRPDGLPKKY	soluble
MDIPRIFTISESEHRIHNPFTEEKYATLGRVLRMKPGTRILDLGSGSGEMLCTWARDHGITGTGIDMSSLFTAQAKRRAEELGVSERVHFIHNDAAGYVANEKCDVAACVGATWIAGGFAGAEELLAQSLKPGGIMLIGEPYWRQLPATEEIAQACGVSSTSDFLTLPGLVGAFDDLGYDVVEMVLADQEGWDRYEAAKWLTMRRWLEANPDDDFAAEVRAELNIAPKRYVTYARECFGWGVFALIARLEHHHHHH	soluble
QLEKELEESAARYNQLAAQSRTITWEIDVTGLFTYVSPVVESVFGYLPNELVGAMRFYEIHPTEGRERFKTSFLEMFASKTIVEEVVHPVVAVDGRTIWMSTNALPILDEHGTLVGYRGACTDIS	not soluble
IKGSTDMDHSGFIQKFIALYGGLNKHTLHHLSEIYSYDVQFIDAVHEINGIDELTDYFTHLYTNLIECKFTIHHVIEDINLTQGEATLFWTMNYKHPKIGKGKSISVEGVSHIKFNDKVFYHRDFLDMGQMVYEHLPLIGPMVKFIKKRVQA	soluble

Please look up its soluble on expression in E. coli: HDKVVVLEAKNGNVTFDHKKHAGVKGECKACHETEAGGKIAGMGKDWAHKTCTGCHKEMGKGPTKCGECHKK soluble

// lookup soluble on expression in E. coli for NSLTTHYRRSQLIALPVPGGKAKVEYCYAVNVPGDREIVTHSFAEWAVGDFNRQKETVLCDKLTAGSKITTECPSESFVGSRKHNGLSTSAKVMSMNASARSNSFVVNSGK not soluble

Tell me the measured soluble on expression in E. coli of MADEIAKAQVARPGGDTIFGKIIRKEIPAKIIFEDDQCLAFHDISPQAPTHFLVIPKKHISQISAAEDADESLLGHLMIVGKKCAADLGLKKGYRMVVNEGSDGGQSVYHVHLHVLGGRQMNWPPG , please. soluble

###

# assayProtocol: soluble on expression in E. coli; label from the status in PepcDB or PDB records
measurementName: soluble on expression in E. coli

# annotated cases, reported soluble on expression in E. coli shown
sequence	soluble on expression in E. coli
MGSDKIHHHHHHMFSQTIFFGMKQSARGVSVAFSTLQEASMHKRVLIQAASALLALQFMAVPVFAAGSSGGGSDQTVTQCKKGEVWDKKKKKCVAPQEGMLDDDSIYDAGHALAMAGRYDEAISVLTLAANKQDPRILNYLGYSHRHSGRVTVGLGYYEEALRIDPNYTLVREYLGEAHLQIGDLAGAQQQLMEIEKRTGKGSREYGMLSEQIDHFMRS	not soluble
MSSAFLADRRLIRVSGTGAEEFLNNLITADIENLPEGETRASALLTPQGKILFDFLIWRDGRDYLVETGAAEQDALLRRLTMYKLRAPVELKAETVEGIGVFWGNSVTEAGVRDGRFAKAGVDLRRVPGASASGEAAAYEALRVEHGIAESGRDYALQDAFPHDVLMDVNDGVSFKKGCFVGQEVVSRMKHRGTARRRVVTVSADGTLPASGTEITANGKPVGALGTVYGNRALAIVRTDRVADALAAGTPLLADNVAVSVALPAWSGLSFPAADPAARAED	not soluble
MGSVNGAEALKALYALQEKDLEIDRLRAEAESPPEELVALQGQVEALEERLTNLLERRAELEREYNRHSLDIEDLSAKEKQAEEEQKRAQSAREQTQYENRIQQIKDRIRELLELSTPIMEAMENLEAEIAQVEEELAALRPRLQELLEANRARVAELEAAIAAKVEERTTMAAAIPAQILKEYEAIRRARRGTGVARMAAQGQVYRCEGCNVVLPTHVAQKVVRGQVVRCPSCGRLLWKGE	soluble
MVRVDVEERFNRIARNTVEIVTEEELKGLLASGARIKGYIGYEPSGVAHIGWLVWMYKVKDLVEAGVDFSVLEATWHAYINDKLGGDMDLIRAAARIVRRVMEAAGVPVERVRFVDAEELASDKDYWGLVIRVAKRASLARVRRALTIMGRRAEEAEVDASKLIYPLMQVSDIFYMDLDIALGGMDQRKAHMLARDVAEKLGRKKPVAIHTPIISSLQGPGRMEASQGEIDDVLAEVKMSKSKPETAVFVVDSDDDIRRKIRKAYCPAKQVQGNPVLEIARYILFARDGFTLRVDRPAKYGGPVEYTSYEELERDYTDGRLHPLDLKNAVAESLIEVVRPIRGAVLGDPAMKRALEAIEGKVTR	soluble
MGSDKIHHHHHHVVDVAHAVKPMSVPQRIEQASRHDLLVLSSQSGPRQSAWSSLTSALGGQDIDDHAGMPCRRVMLMLAEHEAELLRRECQLIPIVGADAVAQSVTLTKKAVPGNWCAWGVLDRDAAQQHLDAKIVSMGARLRDEPAFGLMFSCLARGPHFYDGVDQDIALLKRYYPSMPVIGFYGNGEIAPLNGRNVLWQNSVVLGLFTAES	not soluble

Requested read-out: soluble on expression in E. coli. Entry: MSLNAQLNDLGPIKAVIFDMDGLLLDTEGIYTEITQLIAERYGRTYDWTIKQNIIGRGAGDLARYVVQALDLPISAEEFLVMREPLMRERFPRAQAMPGAQELVRHLKEHRIPIAVGTSSSQMSFGEKTTRHGDWFALFDTIVTADDPEVTAAKPAPDIFLTAARRLGVAPAECLVFEDSPFGVTAARAAGMSVIAVPDPAMADSKFAHAHGIIRSLKGFQPAACGLPHLHWDEGHHHHHH soluble

###

# assayProtocol: soluble on expression in E. coli; label from the status in PepcDB or PDB records

sequence	soluble on expression in E. coli
MGSDKIHHHHHHMTSDDLLPYGYIDAHHHVWAPDSHGDAIGYGWLRDIGAMKPFGDPTPIQRDYLMAEFLSEAPDAPRASVHVQTDGTLPDPVAETRFVQAQADATDHPVKIVGLADLGAEDLTGTLDRHAESRDFCGVRQIAARLDHRPDLTFAPQDYLADEQWVNGLKILEDRGLTFDLQIYPEQAEAALEALSATPALTVIIDHALCPYDPAKITQWQAAVALMAARDNTFIKLSGWGMYDAEWDLNGGVSVQPLVSHILERFGADRVMWGSNFPVEKLATRYETCRDVHLDMVPEDAHQDVFFNSAAKTYGLTLT	not soluble
MKFTIVIPIFNRVQYIPETLDSVIRQTYTDLEIICVDDCSSDRSPVLLQDYAKTDLRIKVLTHAKNKGLYLARKTGVLNASGDYILFLDCDDVLDLHAVEVIYNALCKNSVEVLEYGYHSIHANENTVPDSAITVDKLFSSLVYDRYPRAGTVWNKAYKTELLKNAFSKMSDFHAVMGEDFYESVIIAYYAKSYSSIDDVLVIYNDESGISNTRKNLASIQKDLDSVVAILNGFRFFFESYASEHKEAVLNIESYYIRYVYYNLILLKTNKTDRKMAVDLLKDYFSAEAAAPYFNKTKPAVTRDAVMYKIRAVIKRYISKKLREMIKKIIRRYDKKPQQK	not soluble
